system: AncSZ; experiment: phosphorylation enrichment, bacterial display (enrichment ratio); higher = better substrate or ligand; peptides without Tyr show the background
Give condition met when the value for phosphorylation enrichment is at least 0.9. Give condition not met when it is less.

                        sequence_data  qualitative_label
 0      EQSGSYIWVLA [DLG1_Y895_P899L]      condition met
 1             SEKIVYGHLDD [ACO2_Y71]  condition not met
 2          PDGHEYIYVDP [PDGFRA_Y572]      condition met
 3     VSTKVYKRFPS [BEST1_Y148_A146K]  condition not met
 4            ADKAAYLQNLN [MYH1_Y389]  condition not met
 5     ANAYIYDVQLP [L1CAM_Y420_V421D]      condition met
 6        FTRNYYVQAVL [CYBA_Y88_R90Q]      condition met
 7  LSSNLYFRWLT [CNGA3_Y168_P163L_YF]      condition met
 8        IGEGTYGQVFK [CDK13_Y716_YF]  condition not met
 9       PTFEHYANSTQ [SLC12A3_Y70_YF]      condition met
10     IGMLIYFARKA [VCAM1_Y718_I716L]      condition met
11     DDKEYYSVHNK [MET_Y1235_Y1230D]      condition met

###

target: Grb2 SH2 (UniProt P62993); experiment: SH2 binding enrichment of the phosphorylated peptide, bacterial display (enrichment ratio); higher = better substrate or ligand; peptides without Tyr show the background
Sequence (P62993 whole entry, looked up): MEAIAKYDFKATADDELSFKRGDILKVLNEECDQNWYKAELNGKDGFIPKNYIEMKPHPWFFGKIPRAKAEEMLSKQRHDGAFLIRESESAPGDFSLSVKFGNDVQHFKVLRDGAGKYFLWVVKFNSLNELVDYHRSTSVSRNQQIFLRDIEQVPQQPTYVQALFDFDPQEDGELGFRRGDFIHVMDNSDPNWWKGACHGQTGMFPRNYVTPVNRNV
Give 1 when the value for SH2 binding enrichment is at least 0.9. Give -1 when it is less.

                         sequence_data  qualitative_label
 0    VISNAYVDLSP [HSD17B4_Y602_A606S]                 -1
 1            TFEYRYLEDRD [CNOT3_Y746]                 -1
 2          FADGVYQALEE [DUOX2_Y70_YF]                  1
 3       KYLENYLNCLL [PLD2_Y169_R172C]                  1
 4    IKGNMYFENSF [EGFR_Y112_R108K_YF]                  1
 5             KKEGPYDVVVL [PARK7_Y67]                 -1
 6             AGNPAYRSFSN [IL4R_Y497]                 -1
 7           TVQVAYYTMMM [SPATA17_Y83]                 -1
 8  EESREYDRLFE [PIK3R1_Y463_K459E_YF]                 -1
 9            EKPAKYDDIKK [GAPDH_Y255]                 -1
10       SVTSTYSPALN [TP53_Y126_C124S]                 -1
11              KSAAIYNPVIY [RHO_Y301]                  1
12               IKRIAYEFVEM [ADA_Y84]                 -1
13           NVTRKYTRQIL [MAP3K2_Y463]                 -1
14             RLSPEYKQNEI [GJB1_Y243]                 -1
15         RREWFYEVIIV [BACE1_Y260_YF]                  1
16   RREWFYEVIIA [BACE1_Y260_V265A_YF]                 -1
17       VKANTYENYWP [GATM_Y100_K102N]                  1
18           LEKISYVFMKR [SSX7_Y48_YF]                 -1
19      DGTGRYLCNAC [GATA5_Y208_H207R]                  1
20            DDSNLYINVKL [MTHFD1_Y52]                 -1
21   MKGDFYCFLAE [YWHAG_Y131_R132C_YF]                 -1
22       REGAKYVSHCA [ASS1_Y113_G117C]                  1
23    KKHIPHREHKS [CSNK1G2_Y206_Y206H]                  1
24      PRAEWYRDDLL [MYOM2_Y317_V321L]                  1
25     IDQDKYAVHFI [FLNA_Y2388_R2391H]                 -1

###

target: Fyn (UniProt P06241); experiment: phosphorylation enrichment, bacterial display (enrichment ratio); higher = better substrate or ligand; peptides without Tyr show the background
Sequence (P06241 whole entry, looked up): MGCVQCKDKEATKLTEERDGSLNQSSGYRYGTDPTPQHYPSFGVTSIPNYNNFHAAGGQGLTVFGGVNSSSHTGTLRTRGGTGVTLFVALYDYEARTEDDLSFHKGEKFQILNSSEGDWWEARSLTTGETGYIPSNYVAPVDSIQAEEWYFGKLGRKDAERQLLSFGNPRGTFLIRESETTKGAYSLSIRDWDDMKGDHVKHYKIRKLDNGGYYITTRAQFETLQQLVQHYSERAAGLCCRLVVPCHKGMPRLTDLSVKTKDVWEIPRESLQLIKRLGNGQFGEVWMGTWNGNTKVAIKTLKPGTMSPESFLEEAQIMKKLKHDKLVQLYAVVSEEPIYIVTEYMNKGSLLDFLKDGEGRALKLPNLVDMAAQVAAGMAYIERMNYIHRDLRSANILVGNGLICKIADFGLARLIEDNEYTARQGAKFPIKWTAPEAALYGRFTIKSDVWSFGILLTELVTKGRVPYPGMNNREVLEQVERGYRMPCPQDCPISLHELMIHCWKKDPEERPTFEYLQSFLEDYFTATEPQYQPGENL
Reported phosphorylation enrichment values follow for various sequences
ASSAY_ENDPOINT: phosphorylation enrichment

                        sequence_data              assay_endpoint  value
 0    SEDANYMRVSC [TTC3_Y1288_K1289M]  phosphorylation enrichment  0.529
 1           VRSNHYDPEED [TJP1_Y1346]  phosphorylation enrichment  0.568
 2                        SKDSAYVTWEP  phosphorylation enrichment    1.5
 3     MPLTKYLKRIK [CNGB3_Y200_E199K]  phosphorylation enrichment  0.377
 4    ERRLIYASDPK [VPS13D_Y864_T865A]  phosphorylation enrichment  0.418
 5    NMRSTYAKLAA [SEC22B_Y193_H190R]  phosphorylation enrichment  0.407
 6      SVVVPYEPPEF [TP53_Y220_V225F]  phosphorylation enrichment  0.427
 7         YNNYGYGNDGF [HNRNPH3_Y161]  phosphorylation enrichment  0.577
 8       ITNLLYHVVGG [GBA_Y412_W417G]  phosphorylation enrichment   5.17
 9         NVGGKYSFLKV [GRM3_Y478_YF]  phosphorylation enrichment  0.306
10         GLETSYIEDNC [PAH_Y24_Q20L]  phosphorylation enrichment  0.525
11   CTTIHYNFMHN [TP53_Y234_C238H_YF]  phosphorylation enrichment  0.566
12      LKVQVYILGRE [ASS1_Y359_G356V]  phosphorylation enrichment   1.13
13       VDTLWYKFLKR [EPM2A_Y86_F84L]  phosphorylation enrichment  0.411
14             QPGDIYHQTWA [GBA_Y244]  phosphorylation enrichment   3.11
15            PGPQSYPIVTG [PAX5_Y299]  phosphorylation enrichment   0.68
16            PLKALYLQQRP [ATM_Y2969]  phosphorylation enrichment  0.822
17           IAAEYYDNLPH [DEGS1_Y284]  phosphorylation enrichment  0.613
18             VDGSVYKLHPS [GCK_Y413]  phosphorylation enrichment   2.64
19      FAELMYTGFWH [ASS1_Y322_V321M]  phosphorylation enrichment   6.85
20     YTNELYMMMRD [FGFR1_Y730_C725Y]  phosphorylation enrichment    1.4
21         DFPIGYPSFLA [TBCK_Y153_YF]  phosphorylation enrichment  0.517
22    RKQQLYIAMEE [CCDC39_Y593_T594I]  phosphorylation enrichment  0.655
23    DLLNSYTENEG [HSPA4L_Y600_I601T]  phosphorylation enrichment  0.614
24       FNNPAYFVLEG [INPPL1_Y986_YF]  phosphorylation enrichment  0.679
25     TLQSMSGCDVG [HLA-B_Y123_Y123S]  phosphorylation enrichment   0.42
26           NYRPGYNNFYN [USH2A_Y467]  phosphorylation enrichment  0.567
27                        KPGVNYFFRVS  phosphorylation enrichment  0.348
28         IVFTSYFLTIL [TAS2R16_Y239]  phosphorylation enrichment  0.578
29  PINLFYLMDLS [ITGB2_Y131_D128N_YF]  phosphorylation enrichment  0.653
30     CLAKMYFSAVE [CP_Y539_D544E_YF]  phosphorylation enrichment  0.822
31           KRPAVYIDEEA [EPM2A_Y304]  phosphorylation enrichment  0.567
32    FRDMDYRSFPH [RBM10_Y41_R46H_YF]  phosphorylation enrichment  0.419
33  GFKVRYATGSI [FGFR1_Y210_W213G_YF]  phosphorylation enrichment  0.417
34      SVTCAYSPALN [TP53_Y126_T125A]  phosphorylation enrichment  0.616
35       SAPPSHEETVA [LITAF_Y23_Y23H]  phosphorylation enrichment  0.481
36       TKDTIYKQPMF [GBA_Y451_F450I]  phosphorylation enrichment  0.502
37        NTYEKYLEEEY [TF_Y669_G671E]  phosphorylation enrichment  0.535
38       KVDKEYEVHVR [GHR_Y226_R229H]  phosphorylation enrichment  0.485
39      NTGVYYDLYGG [PTPN11_Y63_D61V]  phosphorylation enrichment   6.07
40           VDSAHYKLLET [DTX3L_Y385]  phosphorylation enrichment  0.485
41            PNRILYGDFRQ [MYH6_Y717]  phosphorylation enrichment   6.85
42       LWEGSYGKVKE [STK11_Y60_G56W]  phosphorylation enrichment  0.623
43       DEENFYQGSME [ASCC1_Y36_D34N]  phosphorylation enrichment  0.498
44      QRCYVYYYSYL [PTEN_Y176_R173C]  phosphorylation enrichment   1.44
45        NNIDFYKKTTN [FGFR2_Y657_YF]  phosphorylation enrichment  0.393
46            KLADVYQAELR [GFAP_Y116]  phosphorylation enrichment  0.492
47        RGFRQDAFDGK [HLA-A_Y140_YF]  phosphorylation enrichment  0.414
48         LKEIHYPPYTD [ALDH3B2_Y362]  phosphorylation enrichment  0.718
49     QSMEPYTKQQL [STAT3_Y640_V637M]  phosphorylation enrichment  0.462
50       HTKKNYGNSSV [HDX_Y197_A193T]  phosphorylation enrichment  0.337
51     KRELRYMHSRV [ABCD1_Y281_G277R]  phosphorylation enrichment  0.312
52     GDLTDYLMKIL [ACTA1_Y190_R185G]  phosphorylation enrichment  0.397
53       PEADKYCLTYA [FGG_Y300_R301C]  phosphorylation enrichment  0.691
54   FTHSDYQFGQR [PKP2_Y166_S169G_YF]  phosphorylation enrichment  0.443
55   PDDPDYSLVDD [PSTPIP2_Y323_N322D]  phosphorylation enrichment  0.569
56   TESALYGCTIL [MAP3K21_Y724_V728I]  phosphorylation enrichment      6
57             DHAGTYGLGDR [MAPT_Y18]  phosphorylation enrichment   0.48
